# systemUnderTest: Aminopeptidase N (Sus scrofa, UniProt P15145)
# assayDetails: Effect of inhibitor structure on the slow binding inhibition of aminopeptidase M was determined and Ki* was reported which is obtained by the equation Ki[k4/(k3 + k4)]
measurementType: Ki (nM)
Dear colleague, please return just the value in nM, with no unit written.

For reference, reported Ki for CC(C)CC(N)C(O)C(=O)NC(C(=O)NC(CC(=O)O)C(=O)O)C(C)C (stereo unspecified) stands at 900

###

# systemUnderTest: Aminopeptidase N (Sus scrofa, UniProt P15145)
# Sequence (P15145 whole entry): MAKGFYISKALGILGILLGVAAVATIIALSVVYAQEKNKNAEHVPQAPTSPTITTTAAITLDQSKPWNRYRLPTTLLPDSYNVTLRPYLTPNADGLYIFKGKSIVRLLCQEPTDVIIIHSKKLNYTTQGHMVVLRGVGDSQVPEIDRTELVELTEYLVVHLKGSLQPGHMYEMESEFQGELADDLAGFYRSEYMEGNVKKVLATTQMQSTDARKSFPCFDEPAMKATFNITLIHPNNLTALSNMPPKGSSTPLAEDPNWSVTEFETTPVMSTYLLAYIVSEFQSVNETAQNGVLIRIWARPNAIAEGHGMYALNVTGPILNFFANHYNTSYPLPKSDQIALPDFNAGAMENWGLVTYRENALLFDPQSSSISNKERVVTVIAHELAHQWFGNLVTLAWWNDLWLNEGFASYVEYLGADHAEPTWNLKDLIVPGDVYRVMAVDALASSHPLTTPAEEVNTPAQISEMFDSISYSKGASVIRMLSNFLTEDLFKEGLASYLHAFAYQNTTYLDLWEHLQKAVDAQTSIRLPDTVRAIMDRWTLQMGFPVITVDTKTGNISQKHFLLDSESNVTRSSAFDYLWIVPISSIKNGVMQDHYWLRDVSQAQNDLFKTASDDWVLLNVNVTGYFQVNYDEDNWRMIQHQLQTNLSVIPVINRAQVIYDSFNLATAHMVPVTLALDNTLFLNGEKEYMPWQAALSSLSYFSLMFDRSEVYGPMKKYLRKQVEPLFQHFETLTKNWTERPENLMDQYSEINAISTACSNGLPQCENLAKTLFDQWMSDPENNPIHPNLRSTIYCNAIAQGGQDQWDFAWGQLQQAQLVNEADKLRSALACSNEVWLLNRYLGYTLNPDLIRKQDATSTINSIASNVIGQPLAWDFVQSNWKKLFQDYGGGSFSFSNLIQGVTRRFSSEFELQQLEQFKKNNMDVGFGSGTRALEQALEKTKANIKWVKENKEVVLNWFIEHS
# assayDetails: Compound was evaluated for the inhibition of Aminopeptidase M (AP-M) from porcine kidney and the inhibition constant was determined after preincubating the enzyme and inhibitor
measurementType: Ki (µM)
Number in µM, nothing else.

The reported Ki of the compound `CC(C)CCNC(=O)[C@@H](NC(=O)[C@@H](NC(=O)C[C@H](O)[C@@H](N)CC(C)C)C(C)C)C(C)C` was 1000

Short answer for `CC(C)CCNC(=O)[C@H](O)[C@@H](N)Cc1ccccc1` : Ki was 16.3

Source listed as ChEMBL document CHEMBL1122806.
